# targetDesc: C. difficile toxin A (Clostridium difficile, UniProt P16154 1-2710)
# Sequence (P16154 whole entry): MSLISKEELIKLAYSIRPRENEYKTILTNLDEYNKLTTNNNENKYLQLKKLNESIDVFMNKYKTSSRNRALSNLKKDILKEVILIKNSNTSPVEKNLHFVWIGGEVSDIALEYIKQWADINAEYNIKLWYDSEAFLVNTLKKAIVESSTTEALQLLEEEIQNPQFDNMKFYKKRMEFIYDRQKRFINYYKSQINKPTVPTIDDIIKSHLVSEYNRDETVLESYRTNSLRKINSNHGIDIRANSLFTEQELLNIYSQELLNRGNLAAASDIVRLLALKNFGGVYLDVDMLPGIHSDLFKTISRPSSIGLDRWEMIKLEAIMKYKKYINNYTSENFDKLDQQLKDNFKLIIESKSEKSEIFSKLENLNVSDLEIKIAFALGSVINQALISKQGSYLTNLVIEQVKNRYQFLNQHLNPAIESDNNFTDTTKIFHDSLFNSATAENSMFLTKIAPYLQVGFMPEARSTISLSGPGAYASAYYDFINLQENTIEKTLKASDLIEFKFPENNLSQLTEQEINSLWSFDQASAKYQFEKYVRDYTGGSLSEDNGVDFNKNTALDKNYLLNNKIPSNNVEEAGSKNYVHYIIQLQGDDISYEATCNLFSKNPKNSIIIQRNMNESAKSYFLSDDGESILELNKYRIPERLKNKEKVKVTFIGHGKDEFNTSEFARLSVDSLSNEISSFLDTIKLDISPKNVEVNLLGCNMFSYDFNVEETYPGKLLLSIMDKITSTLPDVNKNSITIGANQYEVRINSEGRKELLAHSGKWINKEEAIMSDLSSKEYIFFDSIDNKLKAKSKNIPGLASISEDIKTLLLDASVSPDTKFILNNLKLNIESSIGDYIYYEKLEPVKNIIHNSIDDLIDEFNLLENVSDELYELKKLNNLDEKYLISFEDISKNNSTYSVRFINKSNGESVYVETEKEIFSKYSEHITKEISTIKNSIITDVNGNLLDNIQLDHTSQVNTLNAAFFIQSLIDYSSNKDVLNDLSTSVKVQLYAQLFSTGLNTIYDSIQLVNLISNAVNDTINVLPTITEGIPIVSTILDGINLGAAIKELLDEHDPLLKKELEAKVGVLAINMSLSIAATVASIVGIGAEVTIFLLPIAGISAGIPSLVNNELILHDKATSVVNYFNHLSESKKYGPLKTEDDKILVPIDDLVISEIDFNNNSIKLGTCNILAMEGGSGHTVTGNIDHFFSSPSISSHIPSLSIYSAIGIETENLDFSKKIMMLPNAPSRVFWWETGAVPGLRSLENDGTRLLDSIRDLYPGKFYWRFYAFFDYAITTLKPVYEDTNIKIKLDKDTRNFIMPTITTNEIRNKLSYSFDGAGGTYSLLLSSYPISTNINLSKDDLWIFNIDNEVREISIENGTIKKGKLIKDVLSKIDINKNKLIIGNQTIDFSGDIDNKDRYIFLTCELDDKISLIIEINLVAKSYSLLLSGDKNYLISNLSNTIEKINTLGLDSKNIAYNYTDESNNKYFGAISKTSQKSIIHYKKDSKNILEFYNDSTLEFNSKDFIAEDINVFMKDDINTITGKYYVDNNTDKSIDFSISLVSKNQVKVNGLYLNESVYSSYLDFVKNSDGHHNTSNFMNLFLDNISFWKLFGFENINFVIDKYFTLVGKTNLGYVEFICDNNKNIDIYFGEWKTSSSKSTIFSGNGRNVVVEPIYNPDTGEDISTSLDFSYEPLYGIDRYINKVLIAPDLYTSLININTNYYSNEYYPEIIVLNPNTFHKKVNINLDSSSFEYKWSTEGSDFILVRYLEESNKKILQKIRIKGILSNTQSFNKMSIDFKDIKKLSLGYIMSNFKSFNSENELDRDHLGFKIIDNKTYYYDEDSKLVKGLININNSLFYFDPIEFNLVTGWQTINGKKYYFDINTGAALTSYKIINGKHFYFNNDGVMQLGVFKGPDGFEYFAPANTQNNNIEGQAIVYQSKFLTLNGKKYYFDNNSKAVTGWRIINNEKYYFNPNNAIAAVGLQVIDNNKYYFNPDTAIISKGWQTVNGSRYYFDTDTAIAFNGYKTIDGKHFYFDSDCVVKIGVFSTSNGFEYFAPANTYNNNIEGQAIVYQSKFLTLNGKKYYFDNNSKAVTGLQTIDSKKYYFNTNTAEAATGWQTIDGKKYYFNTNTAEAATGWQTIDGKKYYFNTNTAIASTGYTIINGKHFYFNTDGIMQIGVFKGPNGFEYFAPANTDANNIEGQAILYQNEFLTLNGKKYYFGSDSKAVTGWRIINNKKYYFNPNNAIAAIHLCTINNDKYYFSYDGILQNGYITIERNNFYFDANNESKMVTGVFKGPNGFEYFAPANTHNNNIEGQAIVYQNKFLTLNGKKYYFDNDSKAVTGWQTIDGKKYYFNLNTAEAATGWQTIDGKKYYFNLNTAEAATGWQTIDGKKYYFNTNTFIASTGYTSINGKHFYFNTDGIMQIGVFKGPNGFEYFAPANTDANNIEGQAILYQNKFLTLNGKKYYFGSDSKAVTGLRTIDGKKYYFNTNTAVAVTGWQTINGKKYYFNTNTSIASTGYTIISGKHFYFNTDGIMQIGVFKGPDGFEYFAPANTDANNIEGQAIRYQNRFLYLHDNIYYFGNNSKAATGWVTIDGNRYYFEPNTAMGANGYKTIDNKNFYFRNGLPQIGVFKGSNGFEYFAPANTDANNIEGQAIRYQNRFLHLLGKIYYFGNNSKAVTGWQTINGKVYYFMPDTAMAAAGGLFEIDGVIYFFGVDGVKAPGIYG
# experimentNotes: cell-based or functional assay
valueType: EC50 TcdA [RLU], toxin neutralization assay (TNA) on IMR90 cells (RLU)
Numbers only; they are read as RLU.

// solved cases for EC50 TcdA [RLU], toxin neutralization assay (TNA) on IMR90 cells follow
hCDIFA-43 (antibody, V domains shown) VH: QVQLVQSGPVLVKPTETLMLTCTVSGFSLSSAGMGVSWIRQPPGKAPEWLAHIFLSDEKSYRTSLESRLTISKDTSKSQVVLIMTNVDPADTATYYCARALKRYCTGGVCFLNWFDSWGPGTVVTVSS VL: DIVMTQSPGTLSLSPGERATLSCRASLSIGNLYLAWYKQRPGHPPRLLIYGASSRATGTPDRFSGSGSGTDFTLTISRLEPEDFVVYYCQQYKTSPWTFGQGTKVEIKR : 3210
hCDIFA-34 (antibody, V domains shown) VH: QVQLVESGGDLIQPGESLRLSCVASGFTVGSHYMTWVRQAPGKGLEWVSTIYSGGTTKYADSVKGRFTISRDNSKNTLFLQMNSLRTEDTAVYFCARGSAFSSSWWLVDFWGQGTLVTVSS VL: SYELTQPPSVSVAPGKTARITCEDNYVGGNNVHWYQQKPGQAPVLVVSDDNARPSGIPERVSGSKSGNTATLIINRVEVGDEADFYCQVWDSSRDRVLFGGGTKLTVLG : 247
hCDIFA-16 (antibody, V domains shown) VH: QVQLQESGPGLVKPSETLSLTCTVSGDSISDYYWSWIRQPPGRGLEWIGYIYYSGSTNYNPSLKSRLTISVDTSKNQFSLNLSSVTAADTAVYYCARSMGHYDFWNTYFPCFDPWGQGTLVTVSS VL: EIVMTQSPGTLSLSPGERATLSCRASQSVSSGYLAWYQQKPGQAPRLLIYGASSRATGIPDRFRGSGSGTDFTLTISRLEPEDFAVYYCQQYGSSPLTFGGGTKLEIKR : 298
hCDIFA-59 (antibody, V domains shown) VH: QVQLVESGGGLVQPGRSLRLSCRTSGFTFGDFALSWVRQAPGKGLEWVGYIRSKTFGGTTEYAASVKGRFTMSRDDSKSIAYLQMNSLKTEDTAVYFCTRASYGAFDYWGQGTLVTVSS VL: DIVMTQSPSSLSASVGDTVTITCRAGQNIATYLHWYQQKPGKAPNLLIYDARTLQSGVPSRFSGSGSGTDFTLTINSLQPEDFATYYCQQSYNTPWTFGQGTKVEIKR : 9
hCDIFA-23 (antibody, V domains shown) VH: QVQLVQSGGGVVQPGRSLRLSCAASGFTFSQYSIHWVRQAPGKGLEWVAVMSYDGRNKYYADSVKGRFTISGDNSRNTLYVQMNSLRAEDTAIYYCARDLIKAAMVPAFDIWGQGTMVTVSS VL: TALTQPRSVSGSPGQSVTISCTGTNSDVADYNYVSWYQHHPGKAPKLMIYDVTKRPSGVPDRFSGSKSGNTASLTISGLQAEDEADYYCCSYAARYTFGGGTKLTVLG : 136

Prompt: Which EC50 TcdA [RLU], toxin neutralization assay (TNA) on IMR90 cells reading was recorded for the binder hCDIFA-47 (antibody, V domains shown) VH: QVQLQESGAEVKKPGSSVKVSCQASGGTFSNYAFNWVRQAPGQGLEWMGRTIPIVGLVNYAQNFQGRITFSADKSTSTAYMEVNSLRSDDTAVYYCARAEYPLNCTRGNCDVGTSYHYYYGMGVWGRGTTVTVSS VL: EIVMTQSPATLSVSPGERATLSCRASQSISSNLAWFQQKPGQAPRLLIHGASTRATGIPVRFSGSGSGTEFTLTISSLQFGDSAVYYCQQYYNWRYTFGQGTKLEIKR ?
Completion: 12700

Prompt: # EC50 TcdA [RLU], toxin neutralization assay (TNA) on IMR90 cells lookup, item hCDIFA-6 (antibody, V domains shown) VH: QVQLQESGPGLVKPSQTLSLTCSVSGDSSSSGDYYWNWIRQPAGKGLEWIGYIYTSGSTNYNPSLKSRVTISEDTSKKQFSLKLTSVTAADTAVYYCARGIVGVGLDYWGQGTLVTVSS VL: EIVMTQSPSTLSASVGDRVTITCRASQTISSWLAWYQQKPGRAPKLLMSKTSTLQPGVPSRFSGSGSGTEFTLTISGLQPDDVATYYCHHYNSWPFGPGTKVEIKR
Completion: 1420

Prompt: Which measured EC50 TcdA [RLU], toxin neutralization assay (TNA) on IMR90 cells value corresponds to hCDIFA-55 (antibody, V domains shown) VH: EVQLLESGAEVKKPGASVKVSCKASAYTFTTYGINWVRQAPGQGLEWMGWVSFSNGNTEYAQKFQGRVTMTTDTSTSTAFMELRSLRSDDTAVYYCASEKGELLSGCFDPWGQGTLVTVSS VL: QSVLTQPPSVSAAPGQKVTISCSGSSSNIGNSLVSWYQHLPGTAPKLLISDNNERPSGIPDRFSGSKSGTSATLGITGLQTGDEADYYCGTWDSSLSVVVFGGGTKLTVLG ?
Completion: 942000

Prompt: Quick one: EC50 TcdA [RLU], toxin neutralization assay (TNA) on IMR90 cells of hCDIFA-53 (antibody, V domains shown) VH: QVQLQQSGPGLVKPSETLSLTCTLSGGSISSDNYYWGWVRQPPGKGLEWIGSIYYSGSTYYNPSLKSRVFISVDMSKNQFSLKLSSVTAADTAVYYCARHTQGLGILRYFDWWTRPFDYWGQGTLVTVSS VL: QSALTQPASVSGSPGQSITISCTGTSSDVGSYNLVSWYQQHPGKAPKLMIYEGSKRPSGVSNRFSGSKSGNTASLTISGLQAEDEADYYCCSYAGSSTLFGGGTKLTVLG ?
Completion: 4100
